# assayed_system: Vasopressin V1a receptor (Homo sapiens)
# Sequence (P37288 whole entry): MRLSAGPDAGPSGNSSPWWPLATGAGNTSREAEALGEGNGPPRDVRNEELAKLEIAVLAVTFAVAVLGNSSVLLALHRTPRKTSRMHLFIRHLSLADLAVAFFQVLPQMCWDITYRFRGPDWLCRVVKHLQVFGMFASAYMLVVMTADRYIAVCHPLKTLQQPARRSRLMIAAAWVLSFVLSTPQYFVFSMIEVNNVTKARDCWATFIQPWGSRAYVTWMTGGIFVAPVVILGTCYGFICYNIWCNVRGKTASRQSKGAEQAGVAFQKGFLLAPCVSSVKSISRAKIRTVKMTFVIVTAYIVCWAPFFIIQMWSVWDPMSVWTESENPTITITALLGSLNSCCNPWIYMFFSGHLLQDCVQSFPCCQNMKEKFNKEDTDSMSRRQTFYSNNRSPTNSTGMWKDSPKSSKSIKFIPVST
pKi: −log10 of the molar value.
quantity_measured: pKi

Below, 2 compounds whose answers are already recorded.
C/C(=N\NC(=O)CN(c1ccccc1)S(=O)(=O)c1ccccc1)c1ccccc1O	< 5.00
CCOc1ccc(S(=O)(=O)N(CC(=O)/N=N/c2c(O)[nH]c3ccc(I)cc23)c2ccccc2)cc1	< 5.00

Alright, here's another compound for you.
Exam item: // map CCOc1ccc(S(=O)(=O)N(CC(=O)N/N=C(\C)c2ccc3ccccc3c2O)c2ccc(C)cc2)cc1 to recorded pKi (system: Vasopressin V1a receptor (Homo sapiens))
Marked response: < 5.00
